# TARGET DESC: T1, CD22 on cynomolgus monkey peripheral blood B cells (cynomolgus monkey (Macaca fascicularis))
# T1 construct: whole, on cells; also called cynomolgus monkey B cells
# EXPERIMENT: FACS, cynomolgus PBMC, CD20+ B cells, antibody 1 nM
Record form. Attribute: Proportion of chimeric antibody positive cells to B cells (%). Fill in for each entry.
Quick reminder: number only, in %, skip the unit.

Task: Reported Proportion of chimeric antibody positive cells to B cells (%), binder F2.180.16 (antibody, human IgG1, lambda, V domains shown, human-murine chimeric IgG1 lambda) VH: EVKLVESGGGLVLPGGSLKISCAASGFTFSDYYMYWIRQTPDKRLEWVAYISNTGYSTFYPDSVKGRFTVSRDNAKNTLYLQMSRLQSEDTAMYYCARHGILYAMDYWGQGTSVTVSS VL: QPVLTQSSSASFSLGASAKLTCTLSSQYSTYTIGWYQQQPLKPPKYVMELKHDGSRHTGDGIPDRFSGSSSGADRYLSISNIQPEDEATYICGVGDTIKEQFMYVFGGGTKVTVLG : ____
Output: 16

Task: Given the entry F1.172.13 (antibody, human IgG1, kappa, V domains shown, human-murine chimeric IgG1 kappa) VH: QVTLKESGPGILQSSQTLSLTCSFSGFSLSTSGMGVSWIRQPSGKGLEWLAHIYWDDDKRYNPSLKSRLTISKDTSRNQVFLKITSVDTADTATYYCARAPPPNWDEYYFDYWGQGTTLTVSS VL: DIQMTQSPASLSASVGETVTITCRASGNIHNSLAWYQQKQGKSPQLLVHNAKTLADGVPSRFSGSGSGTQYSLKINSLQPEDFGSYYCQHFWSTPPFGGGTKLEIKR , report its measured Proportion of chimeric antibody positive cells to B cells (%).
Output: 30

Task: Name the reported Proportion of chimeric antibody positive cells to B cells (%) value associated with the binder F2.127.11 (antibody, human IgG1, lambda, V domains shown, human-murine chimeric IgG1 lambda; VL name legible) VH: QVTLKESGPGILQPSQTLSLTCSFSGFSLSTFGMGVGWIRQPSGKGLEWLAHIWWDDDKHYNPALKSRLTISKDTSRNQVFLKIANVDTADGATYFCARDNWVSSLDYWGQGTSVIVSS VL: QPVITQSSSASFSLGASAELTCTLSSQHSTYTIEWYQQQPLKPPKYVMGLKKDGSHSTGDGIPDRFSGSSSGADRYLSISNIQPEDEAIYICGVSDTIKEQFVYVFGGGTKVTVLG
Output: 20
